// data source = the supplement of paper PMC11451515

- Test system: SEM cells
- TEST METHOD NOTES: cell viability relative to DMSO control; higher = less cytotoxic
- DETAILS: RPMI 5 mM glucose + 10% dialyzed FBS; 48 h; 1.71 µM

MOLECULE: COC1=CC=C2/C3=N/CCN3\C(=N/C2=C1OC)NC(=O)C4=CC=CN=C4
UNIT NAME: %
cell viability: 92.9

MOLECULE: O=C(Nc1cccnn1)N1CCC(=Cc2cccc(Oc3ccc(C(F)(F)F)cn3)c2)CC1
UNIT NAME: %
cell viability: 98.4

MOLECULE: CCOc1cc(CC(=O)N[C@@H](CC(C)C)c2ccccc2N2CCCCC2)ccc1C(=O)O
UNIT NAME: %
cell viability: 137

MOLECULE: Cc1ncc([N+](=O)[O-])n1CC(C)O (centres undefined)
UNIT NAME: %
cell viability: 119

MOLECULE: CCCC1OC2C[C@H]3[C@@H]4CCC5=CC(=O)C=C[C@]5(C)[C@H]4C(O)C[C@]3(C)[C@]2(C(=O)CO)O1 (some centres undefined)
UNIT NAME: %
cell viability: 52.3

MOLECULE: CC(C)C[C@H](NC(=O)[C@@H](O)[C@H](N)Cc1ccccc1)C(=O)O
UNIT NAME: %
cell viability: 132

MOLECULE: CN(C)C1=C(Br)C=C(C=C1)C\2NC3=C(\C4=C2C(=O)CC(C)(C)C4)C5=CC=CC=C5C=C3 (centres undefined)
UNIT NAME: %
cell viability: 114

MOLECULE: C[C@@]1(C(=O)Nc2ccc(F)nc2)CCCN1c1nc(Nc2cc(C3CC3)[nH]n2)c2cccn2n1
UNIT NAME: %
cell viability: 96.5

MOLECULE: OC1=CC2=C(C(=C1)O)C(=O)\C(=C(/O2)C3=CC(=C(O)C=C3)O)O
UNIT NAME: %
cell viability: 101

###

Measured cell viability of individual entries
- Test system: NOMO1
- TEST METHOD NOTES: cell viability relative to DMSO control; higher = less cytotoxic
- DETAILS: RPMI 5 mM glucose + 10% dialyzed FBS; 48 h; 0.569 µM
MEASUREMENT KIND: cell viability (%)

COMPOUND STRING: COC(=O)\C1=C\CCN(C)C1
UNIT NAME: %
ASSAY VALUE: 92.5
//
COMPOUND STRING: OCCn1cc(-c2cnc3nnn(Cc4ccc5ncccc5c4)c3n2)cn1
UNIT NAME: %
ASSAY VALUE: 97.1
//
COMPOUND STRING: CN(C)CCN1C(=O)c2cccc3cc(N)cc(c23)C1=O
UNIT NAME: %
ASSAY VALUE: 111
//
COMPOUND STRING: C[C@@H](O)[C@@H]1NC(=O)[C@H](CCCCN)NC(=O)[C@@H](Cc2c[nH]c3ccccc23)NC(=O)[C@H](Cc2ccccc2)NC(=O)[C@@H](NC(=O)[C@H](N)Cc2ccccc2)CSSC[C@@H](C(=O)N[C@H](CO)[C@@H](C)O)NC1=O
UNIT NAME: %
ASSAY VALUE: 101
//
COMPOUND STRING: O.O.CCN1CCN(C(=O)N[C@H](C(=O)N[C@H]2[C@@H]3SC\C(=C(/N3C2=O)C(O)=O)CSC4=NN=N[N]4C)C5=CC=C(O)C=C5)C(=O)C1=O
UNIT NAME: %
ASSAY VALUE: 100
//
COMPOUND STRING: Cc1nc(Nc2n[nH]c3c2CN(C(=O)N[C@H](CN(C)C)c2ccccc2)C3(C)C)c2sccc2n1
UNIT NAME: %
ASSAY VALUE: 60.1
//
COMPOUND STRING: CCOC(=O)Nc1ccc(NCc2ccc(F)cc2)nc1N
UNIT NAME: %
ASSAY VALUE: 119
//
COMPOUND STRING: CC(C)(O)c1cc2nc(-c3cnc(N)nc3)nc(N3CCOCC3)c2s1
UNIT NAME: %
ASSAY VALUE: 83.3
